- measuredTarget: T1, human prostate-specific membrane antigen (PSMA), full length, on cells (human, UniProt Q04609 1-750)
- T1 construct: also called FOLH1; PSMA on C4-2B cells
- T1 sequence (Q04609 whole entry): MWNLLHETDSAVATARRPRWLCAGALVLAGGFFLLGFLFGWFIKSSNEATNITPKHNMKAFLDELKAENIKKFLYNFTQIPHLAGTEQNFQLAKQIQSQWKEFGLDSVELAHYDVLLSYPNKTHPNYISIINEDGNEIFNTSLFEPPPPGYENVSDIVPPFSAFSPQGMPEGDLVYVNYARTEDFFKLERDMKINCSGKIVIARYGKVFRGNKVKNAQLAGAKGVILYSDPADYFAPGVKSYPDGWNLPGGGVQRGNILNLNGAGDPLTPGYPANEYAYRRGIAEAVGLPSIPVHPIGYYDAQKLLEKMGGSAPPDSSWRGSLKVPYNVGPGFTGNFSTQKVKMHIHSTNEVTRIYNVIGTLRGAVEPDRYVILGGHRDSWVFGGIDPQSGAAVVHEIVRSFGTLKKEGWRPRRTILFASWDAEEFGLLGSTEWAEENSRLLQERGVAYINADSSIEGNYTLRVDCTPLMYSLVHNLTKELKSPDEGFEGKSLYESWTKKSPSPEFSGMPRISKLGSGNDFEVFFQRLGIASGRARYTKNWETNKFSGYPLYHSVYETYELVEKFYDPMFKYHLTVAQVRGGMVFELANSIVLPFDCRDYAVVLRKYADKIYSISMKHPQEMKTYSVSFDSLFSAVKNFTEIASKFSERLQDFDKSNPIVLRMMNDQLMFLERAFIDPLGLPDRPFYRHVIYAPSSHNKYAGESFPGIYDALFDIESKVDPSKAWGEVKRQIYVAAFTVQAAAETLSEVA
- test: flow cytometry on C4-2B cells (high PSMA), anti-human AF647 detection, four-parameter fit
pEC50: −log10 of the molar value.
Listed here: items and their measured pEC50.

| binder | pEC50 |
| --- | --- |
| PSMB1157 (antibody, human IgG1, lambda, V domains shown, huIgG1, lambda light chain) VH: EVQLVESGGGVVQPGRSLRLSCAASVRTFSGYGMHWVRQVPGKGLEWVAVISYDGSNRYYADSVKGRFTISRDNSKNTLYLQMNSLRTEDTAVYYCARDGNWGSLDLYFDLWGRGTLVTVSS VL: QSVLTQPPSVSGAPGQRVTISCTGSSSNIGADYDVHWYQQLPGTAPKLLIYVNNNRPSGVPDRFSGSRSGTSASLAITGLQADDEADYYCQSYDNTLSGVVFGGGTKLTVLG | 9.42 |
| PSMB1195 (antibody, human IgG1, kappa, V domains shown, huIgG1, kappa light chain) VH: EVQLVESGGGLVKPGGSLRLSCAASGFTFSSYSLNWVRQAPGKGLEWVSSISSSSSYISYADAVKGRFTISRDNAKNSLYLQMNSLRAEDTAVYYCARDRGFLEDYYYYYGMDVWGQGTTVTVSS VL: DIVMTQSPSSVSASVGDRVTITCRASQGISNWLAWYQQKPGKAPKLLIYVASSLQSGVPSRFSGSGSGTDFSLTISSLQPEDFATYYCQQAYSFPLTFGGGTKVEIKR | 7.86 |
| PSMB1088 (antibody, human IgG1, kappa, V domains shown, huIgG1, kappa light chain) VH: EVQLVESGGGVVQPGRSLRLSCAASGFTFSSYDMHWVRQAPGKGLEWVTVISFDGSNKYYVDSVKGRFTISRDNSKNTLYLQMNSLRAEDTAVYYCARTYYDILTGYSHYSYGMDVWGQGTTVTVSS VL: EIVMTQSPSSLSASVGDRVTITCRASQGISNYLAWYQQKPGKVPKLLIYATSTLQSGVPSRFSGSGSGTDFILTISSLQPEDVANYYCQKYNSAPFTFGPGTKVEIKR | 7.91 |
| PSMB1183 (antibody, human IgG1, lambda, V domains shown, huIgG1, lambda light chain) VH: QVQLQESGPGLVKSSETLSLTCTVSGGSISSYYWNWIRQPAGKGLEWIGRIYSSGNTDYNPSLKSRVTMSVDTSKNQFSLKLISVTAADTAVYYCARGRGANVGLFDYWGQGTLVTVSS VL: QSALTQPPSVSGAPGQRVTISCTGSNSNIGANYDVHWYQHLPGTAPKLLIYGNINRPLGVPDRFSGSRSGTSASLAITGLQAEDEADYYCQSYDFSLSGSVFGVGTKLTVLG | 9.81 |
| PSMB1113 (antibody, human IgG1, kappa, V domains shown, huIgG1, kappa light chain) VH: EVQLVESGGGLVKPGGSLRLSCAASGFTLSIYSMNWVRQAPGKGLEWVSSISSSSSYIFYADSVKGRFTISRDNAKNSLFLQMNSLRAEDTAVYYCARSSYGADYWGQGTLVTVSS VL: EIVMTQSPSSLSASVGDRVTITCRASQDITNFLAWYQQKPGKVPKLLIYTASTLQSGVPSRFSGSGSGTDFTLTISSLQPEDVATYYCQKYNSAPLTFGGGTKLEIKR | 8.60 |
| PSMB1154 (antibody, human IgG1, lambda, V domains shown, huIgG1, lambda light chain) VH: EVQLVESGGGEVQPGRSLRLTCAVSGFTLSRYGMHWVRQAPGKGLEWAALISYDGSNRYYADSVKGRFTISRDNSKNTVFLQMNSLRAEDTAVYYCARERESSGWFEGYFDYWGQGTTVTVSS VL: QLVLTQPPSVSVAPGQTARITCGGNNIGSKSVHWYQQKPGQAPVLVVYDNSDRPSGIPERFSGSNSGNTATLTISRVEVGDEADYYCQVWDSSSDHVVFGGGTKLTVLG | 9.51 |
